# Test system: Dog PRP
# measurement_description: In-Vitro Platelet Aggregation in PRP (ADP-induced)
# Type: cell-based
# condition_parameters: dog platelet-rich plasma; ADP-induced aggregation (50 μm final concentration); 37° C.; 1 minute preincubation; linear regression of dose response curve
observed_property: pIC50
Note: pIC50 values are expressed as the negative base-10 logarithm of concentration in M.

{"molecule": "N=C(N)c1ccc(CCCC[C@@H]2C[C@H](O)CC(=O)O2)cc1 (relative stereo)", "pIC50": 5.39}

Please report pIC50 for the following molecule: COC(=O)CC1CC(=O)OC(CCCCc2ccc(C(=N)N)cc2)C1 (racemic)
5.40
